assay: in vivo; details: BALB/c nude, mouse, in vivo, iv, total radioactivity, uptake Spleen
Assignment: determine reported tissue uptake at 24 h for the given compounds.
Supply the numeric figure in %ID/g, leaving out any unit text.

-- ask Consider the compound shown here: C[C@@H](O)[C@H](NC(=O)[C@@H]1CSSC[C@H](NC(=O)[C@@H](Cc2ccccc2)NC(=O)COCCOCCNC(=O)COCCOCCNC(=O)[C@H](CCCCNC(=O)c2cccc(NC(=O)N[C@@H]3CN(C4CCCCC4)c4ccccc4N(CC(=O)C(C)(C)C)C3=O)c2)NC(=O)CN2CCN(CC(=O)O)CCN(CC(=O)O)CCN(CC(=O)O)CC2)C(=O)N[C@@H](Cc2ccc(O)cc2)C(=O)N[C@H](Cc2c[nH]c3ccccc23)C(=O)N[C@@H](CCCCN)C(=O)N[C@@H]([C@@H](C)O)C(=O)N1)C(=O)O [Compound I-39, DOTA-K(Z360)-OEG-OEG-f[CYwKTC]T-OH] What is its recorded tissue uptake at 24 h?
-- reply 0.31

-- ask Also check C[C@@H](O)[C@H](NC(=O)[C@@H]1CSSC[C@H](NC(=O)[C@@H](Cc2ccccc2)NC(=O)[C@H](CCCCNC(=O)c2cccc(NC(=O)N[C@@H]3CN(C4CCCCC4)c4ccccc4N(CC(=O)C(C)(C)C)C3=O)c2)NC(=O)COCCOCCNC(=O)COCCOCCNC(=O)CN2CCN(CC(=O)O)CCN(CC(=O)O)CCN(CC(=O)O)CC2)C(=O)N[C@@H](Cc2ccc(O)cc2)C(=O)N[C@H](Cc2c[nH]c3ccccc23)C(=O)N[C@@H](CCCCN)C(=O)N[C@@H]([C@@H](C)O)C(=O)N1)C(=O)O [Compound I-41, DOTA-OEG-OEG-K(Z360)-f[CYwKTC]T-OH]
-- reply 0.3

-- ask Also check C[C@@H](O)[C@H](NC(=O)[C@@H]1CSSC[C@H](NC(=O)[C@@H](Cc2ccccc2)NC(=O)[C@H](CCCCNC(=O)c2cccc(NC(=O)N[C@@H]3CN(C4CCCCC4)c4ccccc4N(CC(=O)C(C)(C)C)C3=O)c2)NC(=O)COCCOCCNC(=O)CN2CCN(CC(=O)O)CCN(CC(=O)O)CCN(CC(=O)O)CC2)C(=O)N[C@@H](Cc2ccc(O)cc2)C(=O)N[C@H](Cc2c[nH]c3ccccc23)C(=O)N[C@@H](CCCCN)C(=O)N[C@@H]([C@@H](C)O)C(=O)N1)C(=O)O [Compound I-35, DOTA-OEG-K(Z360)-f[CYwKTC]T-OH]
-- reply 0.47

-- ask Also check C[C@@H](O)[C@H](NC(=O)[C@@H]1CSSC[C@H](NC(=O)[C@@H](Cc2ccccc2)NC(=O)CC[C@H](NC(=O)[C@H](CCCCNC(=O)CC[C@H](NC(=O)CNC(=O)c2cccc(NC(=O)N[C@@H]3CN(C4CCCCC4)c4ccccc4N(CC(=O)C(C)(C)C)C3=O)c2)C(=O)O)NC(=O)CC[C@H](NC(=O)CN2CCN(CC(=O)O)CCN(CC(=O)O)CCN(CC(=O)O)CC2)C(=O)O)C(=O)O)C(=O)N[C@@H](Cc2ccc(O)cc2)C(=O)N[C@H](Cc2c[nH]c3ccccc23)C(=O)N[C@@H](CCCCN)C(=O)N[C@@H]([C@@H](C)O)C(=O)N1)C(=O)O
-- reply 1.03

-- ask Also check C[C@@H](O)[C@H](NC(=O)[C@@H]1CSSC[C@H](NC(=O)[C@@H](Cc2ccccc2)NC(=O)COCCOCCNC(=O)[C@H](CCCCNC(=O)CC[C@H](NC(=O)CNC(=O)c2cccc(NC(=O)N[C@@H]3CN(C4CCCCC4)c4ccccc4N(CC(=O)C(C)(C)C)C3=O)c2)C(=O)O)NC(=O)CN2CCN(CC(=O)O)CCN(CC(=O)O)CCN(CC(=O)O)CC2)C(=O)N[C@@H](Cc2ccc(O)cc2)C(=O)N[C@H](Cc2c[nH]c3ccccc23)C(=O)N[C@@H](CCCCN)C(=O)N[C@@H]([C@@H](C)O)C(=O)N1)C(=O)O
-- reply 1.6

These data points were gathered from patent US20260248972A1.
